test target: T1, His-tagged CEACAM1 (human, UniProt P13688 35-428)
T1 construct: 45 kDa SPR analyte; also called CEACAM1-HIS; CEACAM1 analyte
T1 sequence: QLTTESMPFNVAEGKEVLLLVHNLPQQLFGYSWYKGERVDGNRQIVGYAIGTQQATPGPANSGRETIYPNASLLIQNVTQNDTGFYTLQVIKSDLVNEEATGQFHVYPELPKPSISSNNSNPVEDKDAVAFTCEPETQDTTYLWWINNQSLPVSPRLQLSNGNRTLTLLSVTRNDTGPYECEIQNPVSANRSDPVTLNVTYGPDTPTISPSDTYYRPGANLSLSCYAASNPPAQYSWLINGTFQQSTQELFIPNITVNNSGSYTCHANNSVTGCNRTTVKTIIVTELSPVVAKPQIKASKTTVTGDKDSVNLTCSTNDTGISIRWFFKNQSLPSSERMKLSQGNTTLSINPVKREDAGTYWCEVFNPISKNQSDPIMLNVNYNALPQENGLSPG
test summary: SPR multi-cycle, IgG captured
readout name: average relative KD to VH0/Vκ0
Could you keep your reply to the number by itself?

// known answers, use as guide
- binder: "VH2/Vκ10 (antibody, IgG4, V domains shown, IgG4 (S241P), kappa) VH: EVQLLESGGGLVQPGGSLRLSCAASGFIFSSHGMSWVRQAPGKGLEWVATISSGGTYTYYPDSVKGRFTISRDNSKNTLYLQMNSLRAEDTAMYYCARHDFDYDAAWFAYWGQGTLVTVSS VL: EIVLTQSPATLSLSPGERATLSCRANSSVSYMYWYQQKPGQAPRPWIYLTSNRATGIPARFSGSGSGTDFTLTISSLEPEDFATYYCQQWSSNPPTFGQGTKLEIK"
  average relative KD to VH0/Vκ0: 2.1
- binder: "VH2/Vκ7 (antibody, IgG4, V domains shown, IgG4 (S241P), kappa) VH: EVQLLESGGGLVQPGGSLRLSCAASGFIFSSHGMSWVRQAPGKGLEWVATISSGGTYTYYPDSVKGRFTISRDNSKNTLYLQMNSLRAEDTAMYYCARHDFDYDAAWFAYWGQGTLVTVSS VL: EIVLTQSPATLSLSPGERATLSCRANSSVSYMYWYQQKPGQAPRPWIYLTSNRATGVPARFSGSGSGTDFTLTISSLEPEDFATYYCQQWSSNPPTFGQGTKLEIK"
  average relative KD to VH0/Vκ0: 2.3

Okay, next one:
Prompt line: Bench note: what average relative KD to VH0/Vκ0 did VH1/Vκ9 (antibody, IgG4, V domains shown, IgG4 (S241P), kappa) VH: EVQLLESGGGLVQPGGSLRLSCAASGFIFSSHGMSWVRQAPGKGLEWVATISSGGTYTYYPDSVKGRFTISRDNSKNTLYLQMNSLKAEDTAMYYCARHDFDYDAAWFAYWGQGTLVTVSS VL: EIVLTQSPATLSLSPGERATLSCRANSSVSYMYWYQQKPGQAPRPLIYLTSNRATGVPARFSGSGSGTDYTLTISSLEPEDFATYYCQQWSSNPPTFGQGTKLEIK show?
Response line: 4

Where do the numbers come from? From patent US20250074980A1.
